From: patent US20260193366A1

- system_under_test: T1, human IL-4Rα (human, UniProt P24394 26-232)
- T1 construct: also called Hu IL-4Rα; hIL-4Rα
- T1 sequence: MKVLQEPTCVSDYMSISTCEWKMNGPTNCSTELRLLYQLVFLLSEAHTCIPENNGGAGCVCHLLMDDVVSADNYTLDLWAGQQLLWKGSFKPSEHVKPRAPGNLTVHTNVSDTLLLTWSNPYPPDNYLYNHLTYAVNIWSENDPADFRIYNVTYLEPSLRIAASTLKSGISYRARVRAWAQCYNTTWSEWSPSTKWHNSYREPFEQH
- measurement_notes: SPR, Carterra LSA;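 further: antibodies captured on an anti-human Fc sensor chip, antigen injected at several concentrations, association and dissociation rates fitted with a 1:1 Langmuir model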
# KD Relative to Dupilumab per entry
Reply with just the number.

Solved entries (count: 2):
In: # lookup: KD Relative to Dupilumab of Construct 16 (mAb424) (antibody, IgG4, V domains shown, VH/VL only) VH: EVQLVESGGGLEQPGGSLRLSCAGSGFTFRTYAMTWVRQAPGKGLEWVSSISGSGDNIYYADSVKGRFTISRDNSKNTLYLQMNSLRAEDTAVYYCAKDRLSVTIRPRYYGLDVWGQGTTVTVSS VL: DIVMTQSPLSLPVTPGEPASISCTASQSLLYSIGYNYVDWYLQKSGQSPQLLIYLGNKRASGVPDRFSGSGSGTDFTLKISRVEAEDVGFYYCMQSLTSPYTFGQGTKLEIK
Out: 1.4

In: # lookup: KD Relative to Dupilumab of Construct 35 (mAb467) (antibody, IgG4, V domains shown, VH/VL only) VH: EVQLVESGGGLEQPGGSLRLSCAGSGFTFRTYAMTWVRQAPGKGLEWVSSISGSGGNTYYADSVKGRFTISRDNSKNTLYLQMNSLRAEDTAVYYCAKDRVSITIRPRYYGLDVWGQGTTVTVSS VL: DIVMTQSPLSLPVTPGEPASISCTSSQSLLYSIGKNYVDWYLQKSGQSPQLLIYEGNNRATGVPDRFSGSGSGTDFTLKISRVEAEDVGFYYCMQSLTSPYTFGQGTKLEIK
Out: 0.99

Continuing:
In: # lookup: KD Relative to Dupilumab of Construct 8 (mAb417) (antibody, IgG4, V domains shown, VH/VL only) VH: EVQLVESGGGLEQPGGSLRLSCAGSGFTFRDFAMTWVRQAPGKGLEWVSSISGSGDNIYYADSVKGRFTISRDNSKNTLYLQMNSLRAEDTAVYYCAKDRLSVTVRPRYYGLDVWGQGTTVTVSS VL: DIVMTQSPLSLPVTPGEPASISCRSTQSLLYSIGKNYVDWYLQKSGQSPQLLIYLGNNRATGVPDRFSGSGSGTDFTLKISRVEAEDVGFYYCMQALTTPYAFGQGTKLEIK
Out: 0.83
